target-or-test-system: T1, FZD4 cysteine-rich domain (CRD), MYC-tagged and GPI-anchored on CHO cells (human, UniProt Q9ULV1 42-167, GPI anchor)
T1 construct: also called FZD4 CRD; CHO-myc-FZDGPI; not shown: MYC tag and GPI anchor signal
T1 sequence: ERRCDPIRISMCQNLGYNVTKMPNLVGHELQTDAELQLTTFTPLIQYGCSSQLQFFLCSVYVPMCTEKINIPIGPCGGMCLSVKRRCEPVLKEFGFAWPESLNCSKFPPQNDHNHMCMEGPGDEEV
protocol-details: immunofluorescence, CHO-CRD cells
experimental-endpoint: binding result

binder: Fab-2924 (Fab, V domains shown, Fab; also called Fv-2924) VH: EVQLVESGGGLVQPGGSLRLSCAASGFNISYSYIHWVRQAPGKGLEWVASIYSYYSSTSYADSVKGRFTISADTSKNTAYLQMNSLRAEDTAVYYCARGALDYWGQGTLVTVSS VL: DIQMTQSPSSLSASVGDRVTITCRASQSVSSAVAWYQQKPGKAPKLLIYSASSLYSGVPSRFSGSRSGTDFTLTISSLQPEDFATYYCQQWYSGHSLITFGQGTKVEIK
test-result: no binding

binder: Fab-2905 (Fab, V domains shown, Fab; also called Fv-2905) VH: EVQLVESGGGLVQPGGSLRLSCAASGFNLSYYYMHWVRQAPGKGLEWVASIYSSYSYTSYADSVKGRFTISADTSKNTAYLQMNSLRAEDTAVYYCARSGYALDYWGQGTLVTVSS VL: DIQMTQSPSSLSASVGDRVTITCRASQSVSSAVAWYQQKPGKAPKLLIYSASSLYSGVPSRFSGSRSGTDFTLTISSLQPEDFATYYCQQSSWYYGYPFTFGQGTKVEIK
test-result: no binding

binder: Fab-2914 (Fab, V domains shown, Fab; also called Fv-2914) VH: EVQLVESGGGLVQPGGSLRLSCAASGFNIYYSYMHWVRQAPGKGLEWVASIYPSSSSTSYADSVKGRFTISADTSKNTAYLQMNSLRAEDTAVYYCARGAMDYWGQGTLVTVSS VL: DIQMTQSPSSLSASVGDRVTITCRASQSVSSAVAWYQQKPGKAPKLLIYSASSLYSGVPSRFSGSRSGTDFTLTISSLQPEDFATYYCQQWYYGSLITFGQGTKVEIK
test-result: no binding
